target: HIV-1 Env of isolate MGRM-G-028 (subtype G), on pseudovirus (HIV-1)
method: cell-based or functional assay
outcomeMeasure: IC50 (µg/mL), neutralization of pseudovirus

binder="PGT-125 (antibody, V domains shown) VH: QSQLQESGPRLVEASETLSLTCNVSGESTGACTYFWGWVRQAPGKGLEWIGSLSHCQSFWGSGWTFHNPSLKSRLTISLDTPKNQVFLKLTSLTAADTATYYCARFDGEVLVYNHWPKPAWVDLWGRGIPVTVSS VL: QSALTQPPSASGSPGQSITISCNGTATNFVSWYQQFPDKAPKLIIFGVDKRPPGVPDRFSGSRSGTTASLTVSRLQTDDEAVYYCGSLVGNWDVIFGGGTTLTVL" recordedmeasurement=0.012
